Molecular target: human ALX receptor (Homo sapiens, UniProt P25090)
Experiment: Intracellular calcium measurements (FLIPR), ALX receptor agonistic activity
Conditions: HEK293-hALXR-Ga16 cells, calcium flux, normalized to WKYMVm 10 nM; read-out: EC50 (agonistic activity with respect to the ALX receptor)
measure.name: EC50 (nM)
Value expressed in nM; do not type the unit.

Below: 3 molecules and their reported EC50.
// recorded EC50 for `Cc1nc(C(=O)Nc2cnn(Cc3nc(C(C)(F)F)co3)n2)c(-c2ccccc2)o1` : 2.9

For this molecule ( `Cc1nc(C(=O)Nc2cnn(Cc3ccc(C(C)(F)F)o3)n2)c(-c2cc(F)cc(F)c2)o1` ), measured EC50 is 661

Input `COc1cccc(-c2ocnc2C(=O)Nc2cnn(Cc3nc(C(C)(F)F)cs3)n2)c1` . Output EC50: 69

Now turn to the next molecule.
The recorded EC50 for `Cc1cccc(-c2oc(C)nc2C(=O)Nc2cnn(Cc3coc(C(C)(F)F)n3)n2)c1` is 12

###

Biological target: human ALX receptor (Homo sapiens, UniProt P25090)
Sequence (P25090 1-351): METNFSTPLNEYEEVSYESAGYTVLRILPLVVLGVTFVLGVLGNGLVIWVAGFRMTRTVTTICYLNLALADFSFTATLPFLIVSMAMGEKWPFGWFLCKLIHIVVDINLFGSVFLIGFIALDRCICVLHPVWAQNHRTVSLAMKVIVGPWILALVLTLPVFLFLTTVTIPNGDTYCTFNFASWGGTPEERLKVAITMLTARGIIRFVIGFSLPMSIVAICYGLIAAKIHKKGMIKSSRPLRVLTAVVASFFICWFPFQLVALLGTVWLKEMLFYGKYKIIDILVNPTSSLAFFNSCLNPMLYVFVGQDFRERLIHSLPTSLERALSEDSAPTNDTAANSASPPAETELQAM
Test: Intracellular calcium measurements (FLIPR), ALX receptor agonistic activity
Conditions: HEK293-hALXR-Ga16 cells, calcium flux, normalized to WKYMVm 10 nM; read-out: EC50 (agonistic activity with respect to the ALX receptor)
pEC50: −log10 of the molar value.
Assign classes using reported pEC50 values and the ranges bin 0 = under 7, bin 1 = from 7 up to 8, bin 2 = 8 and over, please.

Study these solved cases before continuing.
Q: Could you tell me which band Cc1nc(C(=O)Nc2cnn(Cc3ccc(C(C)(F)F)o3)n2)c(-c2cccc(Cl)c2)o1 [Example 15] belongs to?
Result: bin 1

Q: For this molecule, which bin applies? Cc1cc(F)cc(-c2oc(C)nc2C(=O)Nc2cnn(Cc3ccc(C(C)(F)F)o3)n2)c1 [Example 26]
Result: bin 0

Q: Given Cc1nc(C(=O)Nc2cnn(Cc3ccc(C(C)(F)F)o3)n2)c(-c2cccc(C(F)(F)F)c2)o1 [Example 24] , name the class its pEC50 places it in.
Result: bin 2

Q: Looking at CN(C)c1cccc(-c2ocnc2C(=O)Nc2cnn(Cc3ccc(C(C)(F)F)o3)n2)c1 [Example 19] , which class would you pick?
Result: bin 1

Q: Class? Entry: CC(F)(F)c1csc(Cn2ncc(NC(=O)c3ncoc3-c3cccc(F)c3)n2)n1 [Example 20]
Result: bin 1

Q: Into which bin does this molecule go? COc1cccc(-c2ocnc2C(=O)Nc2cnn(Cc3ccc(C(C)(F)F)o3)n2)c1 [Example 21]
Result: bin 1

***
Q: Any idea which band CN(C)c1cccc(-c2ocnc2C(=O)Nc2cnn(Cc3nc(C(C)(F)F)cs3)n2)c1 [Example 22] is in?
Result: bin 1

Q: Please indicate the class for Cc1nc(C(=O)Nc2cnn(Cc3nc(C(C)(F)F)cs3)n2)c(-c2cc(F)cc(F)c2)o1 [Example 5] based on its pEC50.
Result: bin 0

Q: Into which bin does this molecule go? Cc1cccc(-c2oc(C)nc2C(=O)Nc2cnn(Cc3nc(C(C)(F)F)co3)n2)c1 [Example 31]
Result: bin 2

Q: The entry to classify is Cc1cc(F)cc(-c2oc(C)nc2C(=O)Nc2cnn(Cc3nc(C(C)(F)F)cs3)n2)c1 [Example 13] ; which class holds it?
Result: bin 0

Q: For the record Cc1nc(C(=O)Nc2cnn(Cc3ccc(C(C)(F)F)o3)n2)c(-c2cccc(OC(F)(F)F)c2)o1 [Example 27] , report the class its pEC50 corresponds to.
Result: bin 1
